Test: Drug concentration in brain of human SUP-M2 cells xenografted SCID mouse at 30 mg/kg, po measured after 2 hrs
Type: ADME, organism-based
Design: dose 30 mg/kg, route oral
Details: SCID, brain, read-out: Drug uptake
Measured metric: concentration at 2 h (ng/g)
Quick note: give the figure in ng/g, leave out the unit.

Study these solved cases before continuing.
molecule="COc1cc(C2CCN(CCO)CC2O)ccc1Nc1ncc2ccc(-c3ccccc3OC)n2n1 (single isomer, unassigned; enantiomer 1)" measured_metric="concentration at 2 h" measurement_units=ng/g reported=1030
molecule="COc1cc([C@@H]2CCN(CCO)C[C@@H]2O)ccc1Nc1ncc2ccc(-c3ccccc3OC)n2n1 (racemic)" measured_metric="concentration at 2 h" measurement_units=ng/g reported=1650

With those in mind, consider the next molecule.
What value of concentration at 2 h has been recorded for this entry: COc1cc([C@H]2CCN(CCO)C[C@@H]2O)ccc1Nc1ncc2ccc(-c3ccccc3OC)n2n1 (relative stereo)
1960

====

Target: Voltage-gated inwardly rectifying potassium channel KCNH2 (Homo sapiens, UniProt Q12809)
Sequence (Q12809 whole entry): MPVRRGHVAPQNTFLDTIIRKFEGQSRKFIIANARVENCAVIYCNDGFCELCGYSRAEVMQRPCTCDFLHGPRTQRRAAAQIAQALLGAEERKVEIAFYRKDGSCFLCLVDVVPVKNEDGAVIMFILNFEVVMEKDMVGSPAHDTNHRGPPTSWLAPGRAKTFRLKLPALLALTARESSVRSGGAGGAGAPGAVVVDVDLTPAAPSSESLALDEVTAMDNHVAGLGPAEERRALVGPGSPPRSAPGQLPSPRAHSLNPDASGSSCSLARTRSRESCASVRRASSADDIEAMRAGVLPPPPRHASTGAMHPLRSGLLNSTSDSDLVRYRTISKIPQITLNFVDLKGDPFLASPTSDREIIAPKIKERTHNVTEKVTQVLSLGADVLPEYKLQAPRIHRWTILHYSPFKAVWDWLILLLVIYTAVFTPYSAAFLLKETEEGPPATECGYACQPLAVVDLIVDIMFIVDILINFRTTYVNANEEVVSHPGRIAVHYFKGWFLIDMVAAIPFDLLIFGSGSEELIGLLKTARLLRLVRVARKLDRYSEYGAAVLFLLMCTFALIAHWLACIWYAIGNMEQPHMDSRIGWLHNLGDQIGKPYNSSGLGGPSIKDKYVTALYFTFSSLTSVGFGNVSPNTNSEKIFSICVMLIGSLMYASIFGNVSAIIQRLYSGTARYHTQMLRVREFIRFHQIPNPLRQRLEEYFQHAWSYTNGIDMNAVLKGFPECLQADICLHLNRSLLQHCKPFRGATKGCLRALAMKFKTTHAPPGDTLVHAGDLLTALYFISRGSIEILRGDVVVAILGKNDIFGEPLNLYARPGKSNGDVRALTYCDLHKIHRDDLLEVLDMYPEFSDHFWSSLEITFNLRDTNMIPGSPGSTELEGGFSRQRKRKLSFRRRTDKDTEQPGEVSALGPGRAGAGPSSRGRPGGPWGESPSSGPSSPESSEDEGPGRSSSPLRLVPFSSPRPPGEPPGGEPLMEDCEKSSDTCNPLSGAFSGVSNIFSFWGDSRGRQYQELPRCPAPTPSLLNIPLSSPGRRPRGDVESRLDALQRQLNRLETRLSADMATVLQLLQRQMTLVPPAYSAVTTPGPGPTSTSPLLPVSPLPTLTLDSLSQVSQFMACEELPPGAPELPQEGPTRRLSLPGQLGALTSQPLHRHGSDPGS
Assay: Inhibition of human ERG by patch clamp cellular assay
Measured metric: IC50 (µM)
Quick note: give the figure in µM, leave out the unit.

What value of IC50 has been recorded for this entry: `COc1cc([C@H]2CCN(CCO)C[C@@H]2O)ccc1Nc1ncc2ccc(-c3ccccc3OC)n2n1`
6.8

====

Listed next: entries and their corresponding half-life.
Assay: Half life in monkey liver microsomes
Assay type: ADME, Macaca mulatta
Conditions: rhesus monkey

Study these solved cases before continuing.
molecule=COc1cc([C@@]2(O)CCNC[C@@H]2O)ccc1Nc1ncc2ccc(-c3ccccc3OC)n2n1 measured_metric=half-life reported="> 40 min"
molecule="COc1cc([C@@H]2CCNC[C@@H]2O)ccc1Nc1ncc2ccc(-c3ccccc3OC)n2n1 (relative stereo)" measured_metric=half-life reported="> 40 min"

With those in mind, consider the next molecule.
What value of half-life has been recorded for this entry: COc1cc([C@@H]2CCN(CCO)C[C@@H]2O)ccc1Nc1ncc2ccc(-c3ccccc3OC)n2n1 (racemic)
> 40 min

====

Experiment: Half life in mouse liver microsomes
Type: ADME
Measured metric: half-life

Study these solved cases before continuing.
compound="COc1cc([C@@H]2CCN(CCO)C[C@@H]2O)ccc1Nc1ncc2ccc(-c3ccccc3OC)n2n1 (racemic)" reported="37 min"
compound="COc1cc([C@@]2(O)CCN(C)C[C@@H]2O)ccc1Nc1ncc2ccc(-c3ccccc3OC)n2n1 (relative stereo)" reported="> 40 min"

With those in mind, consider the next compound.
What value of half-life has been recorded for this entry: `COc1cc([C@@]2(O)CCNC[C@@H]2O)ccc1Nc1ncc2ccc(-c3ccccc3N(C)S(C)(=O)=O)n2n1`
> 40 min

Entry source: ChEMBL document CHEMBL3396997
